Listed next: entries and their corresponding pKi.
# target.system: human NEP (Homo sapiens (Human))
# Sequence (P08473 52-750): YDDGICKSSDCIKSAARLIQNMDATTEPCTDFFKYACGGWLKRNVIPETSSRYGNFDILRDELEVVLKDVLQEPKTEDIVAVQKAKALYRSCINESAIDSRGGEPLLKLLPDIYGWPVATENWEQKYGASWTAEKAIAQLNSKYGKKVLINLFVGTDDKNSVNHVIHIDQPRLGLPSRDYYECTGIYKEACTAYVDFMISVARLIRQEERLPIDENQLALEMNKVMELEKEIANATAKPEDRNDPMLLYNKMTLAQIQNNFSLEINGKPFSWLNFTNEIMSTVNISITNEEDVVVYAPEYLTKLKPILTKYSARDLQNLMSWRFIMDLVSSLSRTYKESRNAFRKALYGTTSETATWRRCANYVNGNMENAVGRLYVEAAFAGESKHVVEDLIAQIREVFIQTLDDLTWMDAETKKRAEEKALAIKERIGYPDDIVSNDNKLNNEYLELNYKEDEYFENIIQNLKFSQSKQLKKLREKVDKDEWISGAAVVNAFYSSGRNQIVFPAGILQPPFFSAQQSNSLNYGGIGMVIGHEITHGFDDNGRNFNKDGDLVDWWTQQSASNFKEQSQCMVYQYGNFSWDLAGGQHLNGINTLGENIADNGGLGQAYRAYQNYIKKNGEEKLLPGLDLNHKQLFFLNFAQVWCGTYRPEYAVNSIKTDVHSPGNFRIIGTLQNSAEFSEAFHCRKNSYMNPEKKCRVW
# experiment: In vitro enzyme inhibition assay at human NEP
# reported.conditions: pKi, recombinant human NEP, fluorogenic peptide substrate, 37° C.
pKi: −log10 of the molar value.
measure: pKi

* O=C(N[C@H](Cc1ccc(-c2cc(Cl)ccc2F)cc1)CC(C(=O)O)c1cccnc1)c1cnn[nH]1 (single isomer, unassigned) [Example 77a] | 8.00 to 8.50
* CCOC(=O)[C@H](N)C[C@@H](Cc1ccc(-c2cc(Cl)ccc2F)cc1)NC(=O)c1cnn[nH]1 [Example 14a] | 7.50 to 8.00
* COC(=O)N[C@H](C(=O)N[C@H](C[C@@H](Cc1ccc(-c2cc(Cl)ccc2F)cc1)NC(=O)c1c[nH]nn1)C(=O)O)C(C)C | 8.50 to 8.90
* N[C@H](C[C@@H](Cc1ccc(-c2cc(Cl)ccc2F)cc1)NC(=O)c1ccns1)C(=O)O | 8.00 to 8.50
* O=C(N[C@H](Cc1ccc(-c2cc(Cl)ccc2F)cc1)C[C@@H](CN1CC(CO)(CO)C1)C(=O)O)c1cnn[nH]1 [Example 92b] | ≥ 9.00
* O=C(N[C@H](Cc1ccc(-c2cc(Cl)ccc2F)cc1)C[C@@H](CN1CCC1)C(=O)O)c1cnn[nH]1 [Example 84b] | ≥ 9.00
* COC1CN(C[C@@H](C[C@@H](Cc2ccc(-c3cc(Cl)ccc3F)cc2)NC(=O)c2c[nH]nn2)C(=O)O)C1 [Example 102c] | ≥ 9.00

###

# target.system: human NEP (Homo sapiens (Human))
# experiment: In vitro enzyme inhibition assay at human NEP
# reported.conditions: pKi, recombinant human NEP, fluorogenic peptide substrate, 37° C.
// values below are reported Ki
measure: Ki

* CC(C)c1coc(C(=O)N[C@H](Cc2ccc(-c3cc(Cl)ccc3F)cc2)C[C@@H](N)C(=O)O)n1 | ≤ 1 nM
* Cc1cc(C(=O)NC(Cc2ccc(-c3cc(Cl)ccc3F)cc2)C[C@@H](CC#N)C(=O)O)sn1 (single isomer, unassigned) [Example 52-2] | 3.16 to 10 nM
* CC(=O)N[C@H](C[C@@H](Cc1ccc(-c2ccccc2)cc1)NC(=O)c1c[nH]nn1)C(=O)O | 3.16 to 10 nM
* Cc1cnc(C(=O)N[C@H](Cc2ccc(-c3cc(Cl)ccc3F)cc2)C[C@@H](CNC(=O)C(C)(C)N)C(=O)O)o1 | ≤ 1 nM
* CN(C)CC(=O)N[C@H](C[C@@H](Cc1ccc(-c2cc(Cl)ccc2F)cc1)NC(=O)c1cnn[nH]1)C(=O)O | 1.26 to 3.16 nM
* O=C(N[C@H](Cc1ccc(-c2cc(Cl)ccc2F)cc1)C[C@@H](CNCCO)C(=O)O)c1cnn[nH]1 (single isomer, unassigned) [Example 48a] | ≤ 1 nM
* Cc1nc(C(=O)N[C@H](Cc2ccc(-c3cc(Cl)ccc3F)cc2)C[C@@H](CN)C(=O)O)co1 | 1.26 to 3.16 nM
* CCC(=O)N[C@H](C[C@@H](Cc1ccc(-c2ccccc2)cc1)NC(=O)c1c[nH]nn1)C(=O)O | 3.16 to 10 nM
* CC(C)c1coc(C(=O)N[C@H](Cc2ccc(-c3cc(Cl)ccc3F)cc2)C[C@@H](NC(=O)[C@@H](C)N)C(=O)O)n1 | 1.26 to 3.16 nM
* O=C(N[C@H](Cc1ccc(-c2ccccc2)cc1)C[C@@H](COCCO)C(=O)O)c1c[nH]nn1 | 1.26 to 3.16 nM
* COCCN(C)C[C@H](C[C@@H](Cc1ccc(-c2cc(Cl)ccc2F)cc1)NC(=O)c1cnn[nH]1)C(=O)O [Example 85a] | ≤ 1 nM
* CC(C)c1coc(C(=O)N[C@H](Cc2ccc(-c3cc(Cl)ccc3F)cc2Cl)C[C@@H](N)C(=O)O)n1 | ≤ 1 nM
* CC(C)c1coc(C(=O)N[C@H](Cc2ccc(-c3cc(Cl)ccc3F)cc2)C[C@@H](NC(=O)[C@H](N)C(C)C)C(=O)O)n1 | 3.16 to 10 nM
* CC(C)c1coc(C(=O)N[C@H](Cc2ccc(-c3cc(Cl)ccc3F)cc2Cl)C[C@H](N)C(=O)O)n1 | 3.16 to 10 nM
